System: J774.A1
Assay: Stimulation of TNFalpha production in mouse J774.A1 cells at 50 uM after 24 hrs by ELISA relative to untreated control
Format: functional
Checkbox rule: fold change (FC) lower than 20 = fulfilled; fold change (FC) not lower than 20 = not fulfilled.

These solved cases illustrate the format of a correct answer.
{"SMILES_RECORD": "O=C(N/N=C/c1ccc(-c2cccc(C(F)(F)F)c2)o1)c1cc(I)ccc1Cl", "ASSIGNED_LABEL": "fulfilled"}
{"SMILES_RECORD": "CCOc1cc(/C=N\\NC(=O)c2ccc3c(c2)OCO3)ccc1OC(=O)c1ccc(Br)cc1", "ASSIGNED_LABEL": "fulfilled"}

Request: Consider the compound O=C(N/N=C/c1ccc(-c2cc(Cl)ccc2Cl)o1)c1ccc([N+](=O)[O-])cc1 . Is its fold change (FC) strictly less than 20?
Result: fulfilled

Request: Lab note: fold change (FC) threshold 20. Does this compound come in strictly under it? O=C(N/N=C/c1ccc(-c2cccc(C(F)(F)F)c2)o1)c1ccc([N+](=O)[O-])cc1
Result: fulfilled

Request: Determine whether this compound shows fold change (FC) lower than 20 (ties excluded): O=C(N/N=C/c1cc(Br)c(Br)o1)c1ccc2c(c1)OCO2
Result: fulfilled

Request: Consider O=C(N/N=C/c1cc(Br)cc(Br)c1OC(=O)c1ccccc1)c1ccc2c(c1)OCO2 . Does its fold change (FC) lie strictly below 20?
Result: fulfilled

Request: Is 20 strictly greater than the compound's reported fold change (FC)? compound: Cc1ccc(C(=O)N/N=C/c2ccc(-c3cccc(C(F)(F)F)c3)o2)cn1
Result: fulfilled

Request: Hello, is fold change (FC) of the following compound strictly smaller than 20? CN(C)c1ccc(/C=N\NC(=O)c2ccc([N+](=O)[O-])cc2)cc1
Result: not fulfilled

Request: Below 20 on fold change (FC)? Entry O=C(N/N=C/c1ccc(-c2ccccc2Cl)o1)c1ccc(Cl)cc1Cl
Result: fulfilled

Request: State whether 20 exceeds fold change (FC) recorded for O=C(N/N=C/c1ccc(-c2ccc([N+](=O)[O-])cc2Cl)o1)c1ccc2c(c1)OCO2 .
Result: not fulfilled

Request: Is fold change (FC) strictly under 20 for the entry Cc1ccc(C(=O)N/N=C/c2ccc(-c3ccc(C)c(Cl)c3)o2)cn1 ?
Result: not fulfilled

Request: Is fold change (FC) strictly under 20 for the entry O=C(N/N=C/c1ccc(-c2cccc(Cl)c2)o1)c1cccnc1 ?
Result: fulfilled

Request: Answer whether the compound O=C(N/N=C/c1ccc(-c2cccc(C(F)(F)F)c2)o1)c1ccc(F)cc1 has fold change (FC) strictly less than 20
Result: not fulfilled

Request: hey, is fold change (FC) for O=C(N/N=C/c1ccc(-c2ccc(Cl)cc2)o1)c1cccnc1 lower than 20 or not?
Result: fulfilled

Request: For this compound, is fold change (FC) lower than 20? O=C(N/N=C/c1ccc(-c2ccc(Cl)c(Cl)c2)o1)c1ccc2c(c1)OCO2
Result: fulfilled

Request: Hi there! Is fold change (FC) for Cc1ccc(C(=O)N/N=C/c2ccc(-c3cc(Cl)c(Cl)cc3Cl)o2)cn1 below 20, do you know?
Result: fulfilled

Request: Check if fold change (FC) falls below 20 for O=C(N/N=C/c1ccc(-c2cccc(Br)c2)o1)c1cccnc1 .
Result: not fulfilled

Measured values drawn from ChEMBL document CHEMBL1142458 for this set.
